// reported T/C per item
- Test system: BDF1 mice, B16 melanoma ip, median survival T/C
- METHOD: NCI In Vivo Anticancer Drug Screen. Data for tumor model B16 Melanoma (intraperitoneal) in B6D2F1 (BDF1) mice
- STATED CONDITIONS: endpoint: median survival time; dose: 100.0 mg/kg/injection; schedule: Q04DX003 (ip); vehicle: saline; higher = longer survival
Inconclusive results and toxic doses are left out.
MEASUREMENT LABEL: T/C

                           compound    value_measured
0  COc1cc2ccc(CCNCc3ccccc3)cc2cc1OC   94 % of control
1                        Cc1cccnc1C  112 % of control
2  ClC(Cl)(Cl)c1ccc(C(Cl)(Cl)Cl)cc1   95 % of control
